B1: library; numbered along this chain (parent)
chain: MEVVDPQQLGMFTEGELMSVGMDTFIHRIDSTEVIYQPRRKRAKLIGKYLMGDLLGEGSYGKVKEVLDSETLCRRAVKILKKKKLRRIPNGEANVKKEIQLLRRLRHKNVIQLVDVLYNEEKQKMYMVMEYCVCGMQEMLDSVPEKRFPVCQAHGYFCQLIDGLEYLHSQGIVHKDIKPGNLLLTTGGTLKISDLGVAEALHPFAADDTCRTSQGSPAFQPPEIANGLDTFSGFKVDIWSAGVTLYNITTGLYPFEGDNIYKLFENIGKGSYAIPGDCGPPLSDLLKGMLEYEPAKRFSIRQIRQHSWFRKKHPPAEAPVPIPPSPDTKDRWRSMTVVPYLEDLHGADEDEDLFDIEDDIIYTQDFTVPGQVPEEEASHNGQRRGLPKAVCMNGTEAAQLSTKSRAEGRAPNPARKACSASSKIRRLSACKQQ

Variants of: B1
ASSAY COMMENT: STK11 functional score (HeLa growth suppression), rescaled enrichment; synonymous median = 1, nonsense median = 0 (normalised score)
ASSAY CONTEXT: with HeLa; variant type: missense
OBSERVED PROPERTY: STK11 functional score
Give bare numbers.

Examples from the recorded data:
A429E | 1.55
M129L | 0.635
K122H | 1.68
P387G | 1.58

For each of the items listed, what is its STK11 functional score?
1. M392C
2. D277G

# output
1.34
1.16
